Below is a list of entries, each paired with its recorded log10 EC50 value.
- assay target: human calcitonin receptor (CTR) (Homo sapiens)
- Sequence (P30988 25-474): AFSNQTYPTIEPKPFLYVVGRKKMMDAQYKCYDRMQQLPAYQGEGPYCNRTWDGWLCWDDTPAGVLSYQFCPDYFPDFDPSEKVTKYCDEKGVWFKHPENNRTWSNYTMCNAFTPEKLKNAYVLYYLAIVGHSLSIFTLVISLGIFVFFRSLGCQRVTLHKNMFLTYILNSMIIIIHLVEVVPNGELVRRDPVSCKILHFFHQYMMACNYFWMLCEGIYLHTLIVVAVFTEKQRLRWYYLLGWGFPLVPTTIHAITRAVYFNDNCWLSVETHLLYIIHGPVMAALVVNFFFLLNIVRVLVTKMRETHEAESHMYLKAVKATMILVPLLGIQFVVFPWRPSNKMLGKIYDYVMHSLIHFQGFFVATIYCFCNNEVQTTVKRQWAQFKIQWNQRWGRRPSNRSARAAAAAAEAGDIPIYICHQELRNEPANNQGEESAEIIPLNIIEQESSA
- assay remarks: Calcitonin receptor (CTR) cAMP Assay
- condition description: COS7-human CTR Clone #2 cells, cAMP dynamic 2 kit; read-out: Calcitonin Receptor cAMP Stimulation Activity: EC50
endpoint name: log10 EC50 (log10 of the value in nM)

# compound, result number
data = [
    ("Cc1nnc(-c2c(CCC3CCOCC3)nc3c(c2-c2cc4ccnc(NCc5cccc(F)c5)c4s2)C(=O)N2CCC[C@@H]32)o1", 1.65),
    ("Cc1nnc(-c2c(CCC3CC(C)OC(C)C3)nc3c(c2-c2cc4ccnc(N[C@@H]5CCc6ncccc65)c4s2)S(=O)(=O)CC3C(C)C)o1 (stereo partly shown)", 1.54),
    ("COc1nnc(-c2c(CCC3CCOCC3)nc3c(c2-c2cc4ccnc(N[C@@H]5CCc6ncccc65)c4s2)S(=O)(=O)CC3C(C)C)o1 (stereo partly shown)", 2.13),
    ("Cc1nnc(-c2c(CCC3CCOCC3)nc3c(c2-c2cnc4c(ccn4Cc4ccc(C#N)cn4)c2)S(=O)(=O)CC3C(C)C)o1 (stereo not shown)", 2.08),
    ("Cc1nnc(-c2c(CCc3ccc(F)cc3)nc3c(c2-c2ccc(C(=O)NCc4ccc(F)c(F)c4)s2)c(=O)n2n3CCC2)o1", 1.23),
    ("COc1cccc2c1CC[C@H]2Nc1nccc2cc(-c3c(-c4nnc(C)o4)c(CCC4CCOCC4)nc4c3S(=O)(=O)N3CCC[C@@H]43)sc12", 0.87),
    ("Cc1nnc(-c2c(CCc3ccc(F)cc3)nc3c(c2-c2cnc4c(ccn4Cc4ccc(C#N)c(F)c4)c2)c(=O)n2n3CCC2)o1", 0.65),
    ("Cc1nnc(-c2c(CCC3CCCOC3)nc3c(c2-c2ccc(C(=O)NCc4ccc(F)c(F)c4)s2)C(=O)N2CCC[C@@H]32)o1 (stereo partly shown)", 1.59),
    ("Cc1nnc(-c2c(CCC3CCOCC3)nc3c(c2C2CCN(C(=O)Cc4ccc(F)c(F)c4)CC2)S(=O)(=O)CC3C(C)C)o1 (stereo not shown)", 3.51),
    ("Cc1nnc(-c2c(CCC3CCOCC3)nc3c(c2-c2cc4ccnc(N[C@@H]5CCc6ncccc65)c4s2)S(=O)(=O)N2CCC[C@@H]32)o1", 0.88),
    ("Cc1nnc(-c2c(CCC3CCOCC3)nc3c(c2-c2cc4ccnc(NCc5ccc(F)c(F)c5)c4s2)C(=O)N2CCC[C@@H]32)o1", 0.45),
    ("Cc1nnc(-c2c(CCC3CCOCC3)nc3c(c2-c2ccc4c(c2)oc(=O)n4Cc2ccc(C#N)cn2)C(=O)N2CCC[C@@H]32)o1", 0.82),
    ("Cc1nnc(-c2c(CCC3CCOCC3)nc3c(c2-c2cc4ccnc(Cc5ccc(F)c(F)c5)c4s2)S(=O)(=O)CC3C(C)C)o1 (stereo not shown)", 2.06),
    ("Cc1nnc(-c2c(CCC3CCOCC3)nc3c(c2-c2cc4ccnc(N[C@@H]5CCc6ncccc65)c4s2)S(=O)(=O)CC3C)o1 (stereo partly shown)", 2.25),
    ("Cc1nnc(-c2c(CC3CCOCC3)nc3c(c2-c2cc4ccnc(N[C@@H]5CCc6ncccc65)c4s2)S(=O)(=O)CC3C(C)C)o1 (stereo partly shown)", 2.35),
    ("CC(C)C1CS(=O)(=O)c2c1nc(CCC1CCOCC1)c(-c1nnc(N)o1)c2-c1cc2ccnc(N[C@@H]3CCc4ncccc43)c2s1 (stereo partly shown)", 1.01),
    ("Cc1nnc(-c2c(CCC3CCOCC3)nc3c(c2-c2cnc4c(ccn4Cc4ccc(C#N)c(F)c4)c2)C(=O)N[C@H]3C(C)C)o1", 0.80),
    ("Cc1nnc(-c2c(CCc3ccc(F)cc3)nc3c(c2-c2ccc(C(=O)NCc4ccc(F)c(F)c4)s2)C(=O)N2CCC[C@@H]32)o1", 0.65),
    ("Cc1nnc(-c2c(C(C)C)nc3c(c2-c2ccc4c(c2)OC(C)(C)C(=O)N4Cc2ccc(F)cn2)C(=O)N2CC4CC32C4)o1", 1.43),
    ("Cc1nnc(-c2c(CCC3CCOCC3)nc3c(c2-c2cc4ncnc(N[C@@H]5CCc6ncccc65)c4s2)S(=O)(=O)CC3C2CC2)o1 (stereo partly shown)", 1.66),
    ("COc1cccc2c1CC[C@H]2Nc1nccc2cc(-c3c4c(nc(CCc5ccc(F)cc5)c3-c3nnc[nH]3)[C@@H]3CCCN3C4=O)sc12", -0.17),
    ("Cc1nnc(-c2c(CCC3CCOCC3)nc3c(c2-c2cn4cccc(N[C@@H]5CCc6ncccc65)c4n2)S(=O)(=O)CC3C(C)C)o1 (stereo partly shown)", 3.02),
    ("COc1cccc2c1CC[C@H]2Nc1nccc2cc(-c3c(-c4nnc(C)o4)c(CCC4CCOCC4)nc4c3S(=O)(=O)CC4C(C)C)sc12 (stereo partly shown)", 0.81),
    ("Cc1nnc(-c2c(CCc3ccc(F)cc3)nc3c(c2-c2ccc(C(=O)NCc4ccc(F)c(F)c4)s2)C(=O)N[C@@H]3C(C)C)o1", 0.85),
    ("Cc1nnc(-c2c(CCC34CCC(CC3)OC4)nc3c(c2-c2ccc4c(c2)oc(=O)n4Cc2ccc(C#N)cn2)c(=O)n2n3CCC2)o1", 0.41),
]

The values you see were collected from patent US20250051355A1.
